This collection of values is drawn from the supplement of paper PMC10307832.

Assign relative viability to each entry below.
# Test system: LOU-NH91
# ASSAY: relative viability (nuclei count vs DMSO), 5 days (fraction); higher = more cells survive
# CONDITION LABEL: first compound 0.2 µM
Lab note: write the figure by itself, no unit.

Q: Supply recorded relative viability for COCC1(CO)C(=O)C2CCN1CC2 (stereo not drawn) [PRIMA-1MET] + COc1cccc2cc(-c3nc([C@H]4CC[C@H](C(=O)O)CC4)n4ncnc(N)c34)[nH]c12 [OSI-027] (partner 0.5 µM) here.
Result: 0.806

Q: Supply recorded relative viability for COCC1(CO)C(=O)C2CCN1CC2 (stereo not drawn) [PRIMA-1MET] + Cc1nc(NC(=O)N2CCC[C@H]2C(N)=O)sc1-c1ccnc(C(C)(C)C(F)(F)F)c1 [Alpelisib] (partner 2 µM) here.
Result: 0.78

Q: Supply recorded relative viability for COCC1(CO)C(=O)C2CCN1CC2 (stereo not drawn) [PRIMA-1MET] + CS(=O)(=O)N1CCN(Cc2cc3nc(-c4cccc5[nH]ncc45)nc(N4CCOCC4)c3s2)CC1 [Pictilisib] (partner 1 µM) here.
Result: 0.573

----------
# System: H3255
# ASSAY: relative viability (nuclei count vs DMSO), 5 days (fraction); higher = more cells survive
# CONDITION LABEL: first compound 0.3162 µM
Assign relative viability to each entry below.
Lab note: write the figure by itself, no unit.

Q: Supply recorded relative viability for O=c1cc(N2CCOCC2)oc2c(-c3cccc4c3sc3ccccc34)cccc12 + Nc1ncn([C@H]2C[C@H](O)[C@@H](CO)O2)c(=O)n1 [Decitabine] (partner 2 µM) here.
Result: 0.604

Q: Supply recorded relative viability for O=c1cc(N2CCOCC2)oc2c(-c3cccc4c3sc3ccccc34)cccc12 + Cc1cc(Nc2cc(N3CCN(C)CC3)nc(Sc3ccc(NC(=O)C4CC4)cc3)n2)n[nH]1 [Tozasertib] (partner 0.1 µM) here.
Result: 0.593

Q: Supply recorded relative viability for CCN(CC)CCCCNc1ncc2cc(-c3cc(OC)cc(OC)c3)c(NC(=O)NC(C)(C)C)nc2n1 + Cc1nc(Nc2ncc(C(=O)Nc3c(C)cccc3Cl)s2)cc(N2CCN(CCO)CC2)n1 [Dasatinib] (partner 0.075 µM) here.
Result: 0.594

----------
Assign relative viability to each entry below.
# Tested on: NCI-H520
# ASSAY: relative viability (nuclei count vs DMSO), 5 days (fraction); higher = more cells survive
# CONDITION LABEL: first compound 0.01 µM
Lab note: write the figure by itself, no unit.

Q: Please indicate recorded relative viability of O=c1cc(N2CCOCC2)oc2c(-c3cccc4c3sc3ccccc34)cccc12 + Cc1cc(Nc2cc(N3CCN(C)CC3)nc(Sc3ccc(NC(=O)C4CC4)cc3)n2)n[nH]1 [Tozasertib] (partner 0.1 µM) measured with NCI-H520.
Result: 0.38

Q: Please indicate recorded relative viability of CCN(CC)CCCCNc1ncc2cc(-c3cc(OC)cc(OC)c3)c(NC(=O)NC(C)(C)C)nc2n1 + CS(=O)(=O)N1CCN(Cc2cc3nc(-c4cccc5[nH]ncc45)nc(N4CCOCC4)c3s2)CC1 [Pictilisib] (partner 1 µM) measured with NCI-H520.
Result: 0.292

Q: Please indicate recorded relative viability of O=c1cc(N2CCOCC2)oc2c(-c3cccc4c3sc3ccccc34)cccc12 + COc1cc2c(Oc3ccc(NC(=O)C4(C(=O)Nc5ccc(F)cc5)CC4)cc3F)ccnc2cc1OCCCN1CCOCC1 [Foretinib] (partner 0.25 µM) measured with NCI-H520.
Result: 0.896

Q: Please indicate recorded relative viability of CCN(CC)CCCCNc1ncc2cc(-c3cc(OC)cc(OC)c3)c(NC(=O)NC(C)(C)C)nc2n1 + C[C@]1(O)C[C@@H](c2nc(-c3ccc4ccc(-c5ccccc5)nc4c3)c3c(N)nccn32)C1 [Linsitinib] (partner 1 µM) measured with NCI-H520.
Result: 0.998

Q: Please indicate recorded relative viability of O=c1cc(N2CCOCC2)oc2c(-c3cccc4c3sc3ccccc34)cccc12 + CS(=O)(=O)N1CCN(Cc2cc3nc(-c4cccc5[nH]ncc45)nc(N4CCOCC4)c3s2)CC1 [Pictilisib] (partner 1 µM) measured with NCI-H520.
Result: 0.304

Q: Please indicate recorded relative viability of CCN(CC)CCCCNc1ncc2cc(-c3cc(OC)cc(OC)c3)c(NC(=O)NC(C)(C)C)nc2n1 + CC(C)C[C@H](NC(=O)[C@H](Cc1ccccc1)NC(=O)c1cnccn1)B(O)O [Bortezomib] (partner 0.002 µM) measured with NCI-H520.
Result: 0.787
